Molecular target: T1, human SIRPβ1 isoform 1 on cells (human, UniProt O00241 30-398)
T1 construct: On CHO cells (low level), on BWZ/BW5147.G.1.4 cells (reporter cells co-express human DAP12) or on primary human myeloid cells; also called huSIRPβ1; BWZ-huSIRPβ1
T1 sequence (O00241 30-398): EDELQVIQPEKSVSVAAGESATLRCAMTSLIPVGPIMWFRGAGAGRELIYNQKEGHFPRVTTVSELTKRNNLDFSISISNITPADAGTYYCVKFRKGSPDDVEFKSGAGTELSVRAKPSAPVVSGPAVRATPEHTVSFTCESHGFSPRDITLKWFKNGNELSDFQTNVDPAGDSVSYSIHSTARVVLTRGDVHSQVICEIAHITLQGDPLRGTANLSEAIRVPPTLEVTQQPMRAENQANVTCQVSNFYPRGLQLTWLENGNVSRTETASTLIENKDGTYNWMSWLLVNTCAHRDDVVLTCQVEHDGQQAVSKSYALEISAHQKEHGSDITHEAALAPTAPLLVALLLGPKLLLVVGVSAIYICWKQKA
Experiment: cell binding titration; target not given
Metric name: log10(EC50) (log10 of the value in nM)

Binder	log10(EC50)
SB-2-8 (antibody, V domains shown, IgG) VH: QVQLVESGGGVVQPGRSLRLSCAASGFTFLDYGMHWVRQAPGKGLEWVSAISAFAGSTYADSVKGRFTISRDNSKNTLYLQMNSLRAEDTAVYYCARDQTAAAAIWGMDVWGQGTTVTVSS VL: EVVLTQSPGTLSLSPGERATLSCRASQSVSSSYLAWYQQKPGQAPRLLIYGASSRATGIPDRFSGSGSGTDFTLTISRLEPEDFAVYYCQQSSSHPFTFGGGTKVEIK	-0.76
SB-40-18 (antibody, V domains shown, IgG) VH: QVQLVQSGAEVKKPGASVKVSCKASGYTFTSYYMAWVRQAPGQRLEWMGWINPAVGATIYSQKFQGRVTITRDTSASTAYMELSSLRSEDTAVYYCARDTGEYSYSPHGMDVWGQGTTVTVSS VL: EIVLTQSPATLSLSPGERATLSCRASQSVSSYLAWYQQKPGQAPRLLIYDSSNRATGIPARFSGSGSGTDFTLTISSLEPEDFAVYYCQQRDEHPPWTFGGGTKVEIK	-0.49
SB-1-5 (antibody, V domains shown, IgG) VH: QVQLVESGGGVVQPGRSLRLSCAASGFTFSAYGMNWVRQAPGKGLEWVSAISASGRSTFYADSVKGRFTISRDNSKNTLYLQMNSLRAEDTAVYYCAKDFTEVVGWLGMDVWGQGTTVTVSS VL: EIVMTQSPGTLSLSPGERATLSCRASQSVSSSYLAWYQQKPGQAPRLLIYGASSRATGIPDRFSGSGSGTDFTLTISRLEPEDFAVYYCQLLGSSPRTFGGGTKVEIK	-1.42
SB-40 (antibody, V domains shown, IgG; also called SB-40 (p)) VH: QVQLVQSGAEVKKPGASVKVSCKASGYTFTSYYMSWVRQAPGQGLEWMGIINPSGGSTSYAQKFQGRVTMTRDTSTSTVYMELSSLRSEDTAVYYCARDTGEYSYSPHGMDVWGQGTTVTVSS VL: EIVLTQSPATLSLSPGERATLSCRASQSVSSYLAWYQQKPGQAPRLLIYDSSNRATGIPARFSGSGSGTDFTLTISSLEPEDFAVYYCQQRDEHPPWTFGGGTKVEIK	-0.15
SB-8-16 (antibody, V domains shown, IgG) VH: QVQLQESGPGLVKPSETLSLTCAVSGYSISAHYYWGWIRQPPGKGLEWIGSIFHSGHTYYNPSLKSRVTISVDTSKNQFSLKLSSVTAADTAVYYCARAGAMTPAGMDVWGQGTTVTVSS VL: EIVMTQSPGTLSLSPGERATLSCRASQSVSSSYLAWYQQKPGQAPRLLIYGASNRATGIPDRFSGSGSGTDFTLTISRLEPEDFAVYYCQQVYSSPYTFGGGTKVEIK	-0.83
SB-2-10 (antibody, V domains shown, IgG) VH: EVQLLESGGGLVQPGGSLRLSCAASGFTFGSYGMHWVRQAPGKGLEWVSAISGLAGQTYADSVKGRFTISRDNSKNTLYLQMNSLRAEDTAVYYCARDQTAAAAIWGMDVWGQGTTVTVSS VL: EIVLTQSPGTLSLSPGERATLSCRASQSVSSSYLAWYQQKPGQAPRLLIYGASSRATGIPDRFSGSGSGTDFTLTISRLEPEDFAVYYCQQSSSHPFTFGGGTKVEIK	-0.63
SB-40-19 (antibody, V domains shown, IgG) VH: QVQLVQSGAEVKKPGASVKVSCKASGYTFTSYYMVWVRQAPGQGLEWMGIINPSSGATNYAQKFQGRVTMTTDTSTSTAYMELRSLRSDDTAVYYCARDTGEYSYSPHGMDVWGQGTTVTVSS VL: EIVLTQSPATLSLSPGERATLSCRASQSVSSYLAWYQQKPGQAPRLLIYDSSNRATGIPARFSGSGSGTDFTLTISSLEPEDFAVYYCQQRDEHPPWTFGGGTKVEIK	-0.15
SB-8 (antibody, V domains shown, IgG; also called SB-8 (p)) VH: QVQLQESGPGLVKPSETLSLTCAVSGYSISSGYYWGWIRQPPGKGLEWIGSIYHSGSTYYNPSLKSRVTISVDTSKNQFSLKLSSVTAADTAVYYCARGGAMTPAGMDVWGQGTTVTVSS VL: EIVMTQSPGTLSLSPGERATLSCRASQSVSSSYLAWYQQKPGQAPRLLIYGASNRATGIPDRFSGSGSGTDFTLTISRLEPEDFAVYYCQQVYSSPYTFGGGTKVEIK	-0.36
SB-8-14 (antibody, V domains shown, IgG) VH: QVQLQESGPGLVKPSETLSLTCAVSGYSISPHYYWGWIRQPPGKGLEWIGSIYHSGHTYYNPSLKSRVTISVDTSKNQFSLKLSSVTAADTAVYYCARGGAMTPAGMDVWGQGTTVTVSS VL: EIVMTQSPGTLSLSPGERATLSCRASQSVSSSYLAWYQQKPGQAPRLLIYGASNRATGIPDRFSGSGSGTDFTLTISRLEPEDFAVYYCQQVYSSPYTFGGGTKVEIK	-0.52
SB-8-13 (antibody, V domains shown, IgG) VH: QVQLQESGPGLVKPSETLSLTCAVSGYSISAHYYWGWIRQPPGKGLEWIGSIFHSGHTYYNPSLKSRVTISVDTSKNQFSLKLSSVTAADTAVYYCARGGAMTPAGMDVWGQGTTVTVSS VL: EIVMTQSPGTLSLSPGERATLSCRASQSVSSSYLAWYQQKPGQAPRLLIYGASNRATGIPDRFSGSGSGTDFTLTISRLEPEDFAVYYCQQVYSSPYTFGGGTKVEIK	-0.60
SB-2-11 (antibody, V domains shown, IgG) VH: QVQLVESGGGLVQPGGSLRLSCAASGFTFARYGMHWVRQAPGKGLEWVSAISGLAGPTYADSVKGRFTISRDNSKNTLYLQMNSLRAEDTAVYYCARDQTAAWGIWGMDVWGQGTTVTVSS VL: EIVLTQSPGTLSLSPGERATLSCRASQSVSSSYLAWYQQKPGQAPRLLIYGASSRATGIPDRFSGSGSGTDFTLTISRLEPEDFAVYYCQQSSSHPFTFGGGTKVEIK	-0.66
